system: Spring Barley “Harrington”; test: Test 1B glasshouse assay, post-emergence herbicidal activity against cereal crops; format: in vivo; conditions: herbicide 45 g/ha, cloquintocet-mexyl 50 g/ha
Please go through the items and note down their Percentage Phytotoxicity Spring Barley “Harrington”.

Incoming: Dear colleague, I am looking for the recorded Percentage Phytotoxicity Spring Barley “Harrington” of the following molecule: Cc1cc(C)c(C2C(=O)C[C@H](CCNC(=O)c3cccc(F)n3)C2=O)c(C)c1 (stereo partly shown)
Outgoing: 0%

Incoming: What does the record list as Percentage Phytotoxicity Spring Barley “Harrington” for Cc1cc(C)c(C2C(=O)CC(CCNC(=O)c3ccc(Br)cn3)C2=O)c(C)c1 (racemic) ?
Outgoing: 38%

Incoming: Entry under review: Cc1cc(C)c(C2C(=O)C[C@H](CCNC(=O)c3ccc(Br)cn3)C2=O)c(C)c1 (stereo partly shown) [Compound A120B] . Reported Percentage Phytotoxicity Spring Barley “Harrington”?
Outgoing: 10%

Incoming: Item Cc1cc(C)c(C2C(=O)C[C@@H](CCNC(=O)c3ccc(Br)cn3)C2=O)c(C)c1 (stereo partly shown) [Compound A120A] has what recorded Percentage Phytotoxicity Spring Barley “Harrington”?
Outgoing: 60%

* * *

tested on: Spring Wheat “Freya”; experiment: Test 1B glasshouse assay, post-emergence herbicidal activity against cereal crops; type: in vivo; conditions: herbicide 60 g/ha, cloquintocet-mexyl 50 g/ha
# label = true (1) if Percentage Phytotoxicity Spring Wheat “Freya” >= 5% else false (0)

Incoming: Percentage Phytotoxicity Spring Wheat “Freya” >= 5% for Cc1cc(C)c(C2C(=O)C[C@@H](CCNC(=O)c3cccc(F)n3)C2=O)c(C)c1 (stereo partly shown) [Compound A112] ?
Outgoing: true (1)

Incoming: Say whether Cc1cc(C)c(C2C(=O)CC(CCNC(=O)c3cc(Cl)ccn3)C2=O)c(C)c1 (racemic) [Compound A23] shows Percentage Phytotoxicity Spring Wheat “Freya” of 5% or more.
Outgoing: true (1)

Incoming: Record Cc1cc(C)c(C2C(=O)CC(CCNC(=O)c3cccc(F)n3)C2=O)c(C)c1 (racemic) [Compound A89] ; criterion: Percentage Phytotoxicity Spring Wheat “Freya” no lower than 5%. Met?
Outgoing: true (1)

Incoming: Say whether Cc1cc(C)c(C2C(=O)CC(CCNC(=O)c3ccc(Br)cn3)C2=O)c(C)c1 (racemic) [Compound A120] shows Percentage Phytotoxicity Spring Wheat “Freya” of 5% or more.
Outgoing: true (1)

Incoming: Test whether the compound Cc1cc(C)c(C2C(=O)C[C@H](CCNC(=O)c3cc(Cl)ccn3)C2=O)c(C)c1 (stereo partly shown) [Compound A128] records Percentage Phytotoxicity Spring Wheat “Freya” of 5% or higher.
Outgoing: false (0)

Incoming: Please indicate if the recorded Percentage Phytotoxicity Spring Wheat “Freya” for Cc1cc(C)c(C2C(=O)C[C@H](CCNC(=O)c3cccc(F)n3)C2=O)c(C)c1 (stereo partly shown) [Compound A113] meets or exceeds 5%.
Outgoing: false (0)

* * *

system: Setaria viridis (SETVI); assay: Test 1B glasshouse assay, post-emergence herbicidal activity against grassy weeds; assay type: in vivo; conditions: 60 g/ha herbicide, 0 g/ha cloquintocet-mexyl, 14 DAA
reportedEndpoint: Post-emergence herbicidal activity, percentage phytotoxicity, SETVI (%)
Field format: number, assumed %, no unit text.

Incoming: Record request: Post-emergence herbicidal activity, percentage phytotoxicity, SETVI value, item Cc1cc(C)c(C2C(=O)CC(CCNC(=O)c3cc(Cl)ccn3)C2=O)c(C)c1 (racemic)
Outgoing: 99

Incoming: Consider the compound shown here: Cc1cc(-n2cc(Cl)cn2)cc(C)c1C1C(=O)CC(CCNC(=O)c2ccccn2)C1=O (racemic) What is its recorded Post-emergence herbicidal activity, percentage phytotoxicity, SETVI?
Outgoing: 80

Incoming: Would you mind telling me what Post-emergence herbicidal activity, percentage phytotoxicity, SETVI value was observed for Cc1cc(C)c(C2C(=O)C[C@H](CCNC(=O)c3cc(Cl)ccn3)C2=O)c(C)c1 (stereo partly drawn) ?
Outgoing: 55

Incoming: Value lookup for Post-emergence herbicidal activity, percentage phytotoxicity, SETVI; key = CCc1cc(-n2cc(Cl)cn2)cc(C)c1C1C(=O)C[C@@H](CCNC(=O)c2ccccn2)C1=O (stereo partly drawn)
Outgoing: 99

Incoming: Name the reported Post-emergence herbicidal activity, percentage phytotoxicity, SETVI value associated with the compound CCc1cc(-n2cc(Cl)cn2)cc(C)c1C1C(=O)CC(CCNC(=O)c2ccccn2)C1=O (stereo not drawn)
Outgoing: 93

Incoming: For the compound shown here, CCc1cc(-n2cc(Cl)cn2)cc(C)c1C1C(=O)C[C@H](CCNC(=O)c2ccccn2)C1=O (stereo partly drawn) , give the reported Post-emergence herbicidal activity, percentage phytotoxicity, SETVI.
Outgoing: 53

Incoming: Reported Post-emergence herbicidal activity, percentage phytotoxicity, SETVI, compound Cc1cc(C)c(C2C(=O)CC(CCNC(=O)c3ccc(Br)cn3)C2=O)c(C)c1 (racemic) : ____
Outgoing: 100

Incoming: Could you share which Post-emergence herbicidal activity, percentage phytotoxicity, SETVI value was measured for Cc1cc(C)c(C2C(=O)C[C@@H](CCNC(=O)c3ccc(Br)cn3)C2=O)c(C)c1 (stereo partly drawn) [Compound A120A] ?
Outgoing: 100

Incoming: Would you mind telling me what Post-emergence herbicidal activity, percentage phytotoxicity, SETVI value was observed for Cc1cc(C)c(C2C(=O)C[C@@H](CCNC(=O)c3cc(Cl)ccn3)C2=O)c(C)c1 (stereo partly drawn) ?
Outgoing: 100

Incoming: # input compound: Cc1cc(C)c(C2C(=O)C[C@H](CCNC(=O)c3ccc(Br)cn3)C2=O)c(C)c1 (stereo partly drawn) [Compound A120B] ; wanted: its Post-emergence herbicidal activity, percentage phytotoxicity, SETVI
Outgoing: 68

Incoming: Need Post-emergence herbicidal activity, percentage phytotoxicity, SETVI of Cc1cc(C)c(C2C(=O)C[C@@H](CCNC(=O)c3cccc(F)n3)C2=O)c(C)c1 (stereo partly drawn) , thanks.
Outgoing: 100

Incoming: Looking for the measured Post-emergence herbicidal activity, percentage phytotoxicity, SETVI of Cc1cc(C)c(C2C(=O)C[C@H](CCNC(=O)c3cccc(F)n3)C2=O)c(C)c1 (stereo partly drawn) , can you help?
Outgoing: 53

* * *

Provide the reported Percentage Phytotoxicity Spring Barley “Harrington” of each item.
test system: Spring Barley “Harrington”; assay: Test 1B glasshouse assay, post-emergence herbicidal activity against cereal crops; type: in vivo; conditions: herbicide 45 g/ha, cloquintocet-mexyl 50 g/ha
Entry rule: numbers only, all in %.

Incoming: Entry Cc1cc(C)c(C2C(=O)C[C@@H](CCNC(=O)c3cccc(F)n3)C2=O)c(C)c1 (stereo partly drawn) [Compound A112] : reported Percentage Phytotoxicity Spring Barley “Harrington” = ?
Outgoing: 45

Incoming: Which value of Percentage Phytotoxicity Spring Barley “Harrington” has been reported for Cc1cc(C)c(C2C(=O)C[C@H](CCNC(=O)c3cc(Cl)ccn3)C2=O)c(C)c1 (stereo partly drawn) [Compound A128] in the records?
Outgoing: 0

Incoming: Would you mind telling me what Percentage Phytotoxicity Spring Barley “Harrington” value was observed for Cc1cc(C)c(C2C(=O)C[C@@H](CCNC(=O)c3cc(Cl)ccn3)C2=O)c(C)c1 (stereo partly drawn) [Compound A127] ?
Outgoing: 0

* * *

Tested on: Winter Barley “Suzuka”
Test: Test 1B glasshouse assay, post-emergence herbicidal activity against cereal crops
Type: in vivo
Details: herbicide 60 g/ha, cloquintocet-mexyl 50 g/ha
Method: Biological Example 1B tests the herbicidal activity of“technical” compounds (i.e. compounds not previously formulated before the test), as the herbicides under test. […] Herbicidal activity (phytotoxicity) is evaluated visually, and an assessed percentage phytotoxicity score is given for each herbicidal application on each plant species (with 100%=total damage to plant; 0%=no damage to plant; the assessment is recorded in increments of 1%). […]
reportedEndpoint: Percentage Phytotoxicity Winter Barley “Suzuka” (%)
The response must be a number in % with no trailing unit.

Incoming: I have this molecule here, Cc1cc(C)c(C2C(=O)C[C@H](CCNC(=O)c3ccc(Br)cn3)C2=O)c(C)c1 (stereo partly drawn) [Compound A120B] , and I need its recorded Percentage Phytotoxicity Winter Barley “Suzuka”.
Outgoing: 13

Incoming: # get_value(readout='Percentage Phytotoxicity Winter Barley “Suzuka”', item= Cc1cc(C)c(C2C(=O)CC(CCNC(=O)c3cc(Cl)ccn3)C2=O)c(C)c1 (racemic) )
Outgoing: 15

Incoming: I would be grateful if you could share the reported Percentage Phytotoxicity Winter Barley “Suzuka” for Cc1cc(C)c(C2C(=O)C[C@H](CCNC(=O)c3cccc(F)n3)C2=O)c(C)c1 (stereo partly drawn) .
Outgoing: 0

Incoming: // lookup Percentage Phytotoxicity Winter Barley “Suzuka” for Cc1cc(C)c(C2C(=O)CC(CCNC(=O)c3ccc(Br)cn3)C2=O)c(C)c1 (racemic)
Outgoing: 40

Incoming: I'd like to know its Percentage Phytotoxicity Winter Barley “Suzuka”. The molecule in question is Cc1cc(C)c(C2C(=O)C[C@H](CCNC(=O)c3cc(Cl)ccn3)C2=O)c(C)c1 (stereo partly drawn)
Outgoing: 0

Incoming: Which value of Percentage Phytotoxicity Winter Barley “Suzuka” has been reported for Cc1cc(C)c(C2C(=O)C[C@@H](CCNC(=O)c3ccc(Br)cn3)C2=O)c(C)c1 (stereo partly drawn) [Compound A120A] in the records?
Outgoing: 83

Incoming: Return reported Percentage Phytotoxicity Winter Barley “Suzuka”; argument: Cc1cc(C)c(C2C(=O)C[C@@H](CCNC(=O)c3cccc(F)n3)C2=O)c(C)c1 (stereo partly drawn)
Outgoing: 53

Incoming: Would you kindly share the measured Percentage Phytotoxicity Winter Barley “Suzuka” for Cc1cc(C)c(C2C(=O)CC(CCNC(=O)c3cccc(F)n3)C2=O)c(C)c1 (racemic) ?
Outgoing: 25

Incoming: Look up Percentage Phytotoxicity Winter Barley “Suzuka” for this molecule: Cc1cc(C)c(C2C(=O)C[C@@H](CCNC(=O)c3cc(Cl)ccn3)C2=O)c(C)c1 (stereo partly drawn)
Outgoing: 5
